# Test system: C2C12 WNT3A-conditioned, nuclear beta-catenin
# ASSAY DETAILS: activation of intranuclear CTNNB1 in the C2C12 line, dose-response, cell-based, Wnt-3a conditioned medium, half-maximal inhibitory concentration (AID 1117325)
Calls of active or inactive are those of the source. How the calls were made is not given here.
Pick one: Y (active), N (inactive)

Solved entries:
[
  {
    "MOLECULE": "COc1ccc2cc1Oc1ccc(cc1)C[C@H]1c3c(cc4c(c3Oc3cc5c(cc3OC)CCN(C)[C@@H]5C2)OCO4)CCN1C",
    "CLASSIFICATION": "N"
  },
  {
    "MOLECULE": "COC(=O)Nc1nc2ccc(S(=O)c3ccccc3)cc2[nH]1 (configuration not stated)",
    "CLASSIFICATION": "Y"
  }
]

In: Returns: the outcome recorded for CSc1ccc2c(c1)C(N1CCN(C)CC1)Cc1ccccc1S2 (configuration not stated) in this assay.
Out: N

In: Try the molecule CCCCCCCCCCCC(=O)[O][Sn]([CH2]CCC)([CH2]CCC)[O]C(=O)CCCCCCCCCCC
Out: N

In: Try the molecule COC(=O)Nc1nc2ccc(C(=O)c3cccs3)cc2[nH]1
Out: Y

In: Try the molecule O=C1C(I)=CC(=C(c2cc(I)c(O)c(I)c2)c2ccccc2C(=O)O)C=C1I
Out: N

In: Try the molecule CCCCCCCCCCOCC(O)CN (configuration not stated)
Out: N

---

# Tested on: C2C12 WNT3A-conditioned, nuclear beta-catenin
# ASSAY DETAILS: activation of intranuclear CTNNB1 in the C2C12 line, dose-response, cell-based, Wnt-3a conditioned medium, half-maximal inhibitory concentration (AID 1117325)
The source made the active and inactive calls. No rule for the calls is given here.
Pick one: active, inactive

In: Returns: the outcome recorded for CCCN(CCC)C(=O)C(CCC(=O)OCCCN1CCN(CCOC(=O)Cc2c(C)n(C(=O)c3ccc(Cl)cc3)c3ccc(OC)cc23)CC1)NC(=O)c1ccccc1 (stereo not given) in this assay.
Out: inactive

In: Try the molecule Nc1ccc2cc3ccc(N)cc3nc2c1
Out: inactive

In: Try the molecule CCCOc1ccc2nc(NC(=O)OC)[nH]c2c1
Out: active

In: Try the molecule Cc1nc2ccc(CN(C)c3ccc(C(=O)N[C@@H](CCC(=O)O)C(=O)O)s3)cc2c(=O)[nH]1
Out: active

In: Try the molecule CC[C@@H]([C@H](C)O)n1ncn(-c2ccc(N3CCN(c4ccc(OC[C@@H]5CO[C@@](Cn6cncn6)(c6ccc(F)cc6F)C5)cc4)CC3)cc2)c1=O
Out: inactive

In: Try the molecule Cc1cc(=O)c2c(O)c3c(O)cc(=O)c4c3c3c(cc(O)c1c23)C(C)(C)C=4O
Out: active

In: Try the molecule COc1cccc2c1C(=O)c1c(O)c3c(c(O)c1C2=O)C[C@@](O)(C(=O)CO)C[C@@H]3O[C@H]1C[C@H](N)[C@H](O[C@@H]2CCCCO2)[C@H](C)O1
Out: inactive

In: Try the molecule Cc1ccc2c(Br)cc(Br)c(O)c2n1
Out: inactive

---

# System: C2C12 WNT3A-conditioned, nuclear beta-catenin
# ASSAY DETAILS: activation of intranuclear CTNNB1 in the C2C12 line, dose-response, cell-based, Wnt-3a conditioned medium, half-maximal inhibitory concentration (AID 1117325)
QUANTITY MEASURED: IC50

In: Give recorded IC50 with C2C12 WNT3A-conditioned, nuclear beta-catenin for the following compound: O=C(CCl)c1ccc(Cl)cc1Cl
Out: 373 nM

In: Try the compound CN(Cc1cnc2nc(N)nc(N)c2n1)c1ccc(C(=O)N[C@@H](CCC(=O)O)C(=O)O)cc1
Out: 26.5 nM

In: Try the compound COc1cc([C@@H]2c3cc4c(cc3[C@H](O)[C@H]3COC(=O)[C@H]23)OCO4)cc(OC)c1OC
Out: 13.1 nM

Source listed as PubChem BioAssay AID1117325.
